Cited source for all entries: ChEMBL document CHEMBL1132511

system: Influenza B virus; test: In vitro inhibitory activity against influenza B neuraminidase using enzymatic assay; format: functional
quantity.kind: IC50 (µM)
Answer in µM, number only, no unit symbol.

# example entries with known answers
>  <compound>
CCC(CC)O[C@@H]1C=C(C(=O)O)C[C@H](N)[C@H]1NC(C)=O [OSELTAMIVIR CARBOXYLATE]

>  <IC50, µM>
0.004

$$$$
>  <compound>
CC[C@@H](CCO)O[C@@H]1C=C(C(=O)O)C[C@H](N)[C@H]1NC(C)=O

>  <IC50, µM>
0.085

$$$$

Shifting focus to the compound that follows.
Challenge: Kindly state the measured IC50 obtained for CC[C@H](CCO)O[C@@H]1C=C(C(=O)O)C[C@H](N)[C@H]1NC(C)=O with Influenza B virus.
Response given: 0.4

---

Recorded IC50 values (Neuraminidase (Influenza A virus (A/Puerto Rico/8/1934(H1N1)))) are given below.
The reply must contain the numeric value and, after it, the unit.

# example entries with known answers
>  <input.smiles>
CC[C@@H](CCO)O[C@@H]1C=C(C(=O)O)C[C@H](N)[C@H]1NC(C)=O

>  <test.target>
Neuraminidase (Influenza A virus (A/Puerto Rico/8/1934(H1N1)))
Sequence (P03468 whole entry): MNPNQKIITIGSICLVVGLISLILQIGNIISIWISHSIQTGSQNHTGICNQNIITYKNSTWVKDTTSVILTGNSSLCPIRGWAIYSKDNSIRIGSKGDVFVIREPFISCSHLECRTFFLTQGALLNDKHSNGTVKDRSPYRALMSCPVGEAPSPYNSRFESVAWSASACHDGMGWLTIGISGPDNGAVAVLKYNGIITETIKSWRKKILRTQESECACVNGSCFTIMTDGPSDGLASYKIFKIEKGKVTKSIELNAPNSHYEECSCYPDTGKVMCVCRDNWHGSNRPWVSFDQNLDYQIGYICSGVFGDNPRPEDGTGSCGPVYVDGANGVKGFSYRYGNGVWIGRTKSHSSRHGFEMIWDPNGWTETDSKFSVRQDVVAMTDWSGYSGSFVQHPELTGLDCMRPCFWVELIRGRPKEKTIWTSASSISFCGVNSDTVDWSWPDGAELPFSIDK

>  <result>
30 nM

$$$$
>  <input.smiles>
CC[C@@H](CC(=O)O)O[C@@H]1C=C(C(=O)O)C[C@H](N)[C@H]1NC(C)=O

>  <test.target>
Neuraminidase (Influenza A virus (A/Puerto Rico/8/1934(H1N1)))

>  <result>
450 nM

$$$$
>  <input.smiles>
CC[C@H](CCO)O[C@@H]1C=C(C(=O)O)C[C@H](N)[C@H]1NC(C)=O

>  <test.target>
Neuraminidase (Influenza A virus (A/Puerto Rico/8/1934(H1N1)))

>  <result>
40 nM

$$$$

Challenge: Field request: IC50 | item: CC[C@H](CC(=O)O)O[C@@H]1C=C(C(=O)O)C[C@H](N)[C@H]1NC(C)=O
Response given: 1150 nM
